# method: qHTS of pediatric cancer cell lines to identify multiple opportunities for drug repurposing: Primary screen for Saos-2 cells (AID 1347097); further: nearly all actives have a fitted effect of over 40% in size
# experimental context: Saos-2 viability, CellTiter-Glo ATP luminescence, 48 h; series mostly up to 46 µM
Results filed as inconclusive are left out. Calls of active or inactive are those of the source. The call rests on the fitted dose curve; in most records, active means well fitted cell-killing curve with a large enough effect; inconclusive means small, poorly fitted or top-dose-only effect; inactive means no such curve, though single readings can be large or run the other way.
Your answer must be one of the following: active, inactive

**Q:** Given O=S(=O)(F)Cc1ccccc1 , state the outcome it received in this test.
**A:** inactive

**Q:** What do you have for C=C[C@@H]1CN2CCC1C[C@H]2[C@H](O)c1ccnc2ccccc12 (stereo partly specified) ?
**A:** active

**Q:** What do you have for O=C(N[C@@H](COc1ccc2[nH]c(=O)[nH]c2c1)c1ccccc1)c1cccn(Cc2ccc(F)c(F)c2)c1=O ?
**A:** active

**Q:** What do you have for O=c1[nH]c2ccc(Cl)cc2c(N[C@@H]2CN3CCC2CC3)c1-c1nc2ccccc2[nH]1 ?
**A:** active

**Q:** What do you have for COC1=CC(C)=C[C@@H](C)[C@@H](O)[C@@H](C)CC(C)=CC=C[C@H](OC)[C@H]([C@@H](C)[C@@H](O)[C@H](C)[C@@]2(O)C[C@@H](O)[C@H](C)[C@@H](C(C)C)O2)OC1=O ?
**A:** active

**Q:** What do you have for C[C@]12Cc3cn[nH]c3C[C@@H]1CC[C@@H]1[C@H]2CC[C@@]2(C)[C@H]1CC[C@]2(C)O ?
**A:** inactive

* * *

# method: Quantitative High-Throughput drug screen in 47 multiple myeloma cell lines against the NCATS MIPE library collection: JIM3_ECACC cell viability assay (AID 1918963; further: nearly all actives have a fitted effect of over 35% in size)
# experimental context: JIM3 myeloma viability, CellTiter-Glo ATP, 48 h; series mostly up to 45.8 µM
Results filed as inconclusive are left out. Active and inactive are the calls of the source. The call rests on the fitted dose curve; in most records, active means well fitted cell-killing curve with a large enough effect; inconclusive means small, poorly fitted or top-dose-only effect; inactive means no such curve, though single readings can be large or run the other way.
Your answer must be one of the following: active, inactive

**Q:** Given C[C@]12COC(=O)C[C@@H]1CC[C@@H]1[C@H]2CC[C@@]2(C)[C@H]1CC[C@]2(C)O , state the outcome it received in this test.
**A:** inactive

**Q:** What do you have for CC(C)(O)C=CC(=O)[C@](C)(O)[C@H]1[C@H](O)C[C@]2(C)[C@@H]3CC=C4[C@@H](C=C(O)C(=O)C4(C)C)[C@]3(C)C(=O)C[C@@]12C ?
**A:** active

**Q:** What do you have for CCC(=O)OC1CCC2C3CCC4=CC(=O)CC[C@@]4(C)C3CC[C@]12C (stereo not given in full) ?
**A:** inactive

**Q:** What do you have for CC(=Cc1csc(C)n1)[C@@H]1C[C@H]2O[C@@H]2CCC[C@H](C)[C@@H](O)[C@@H](C)C(=O)C(C)(C)[C@@H](O)CC(=O)O1 ?
**A:** inactive

**Q:** What do you have for Oc1ccc2c3c1O[C@H]1c4[nH]c5c(c4C[C@@]4(O)[C@@H](C2)N(CC2CC2)CC[C@]314)C[C@@]1(O)[C@H]2Cc3ccc(O)c4c3[C@@]1(CCN2CC1CC1)[C@H]5O4 ?
**A:** inactive

**Q:** What do you have for COc1ccc2c(c1)[C@]13CCCCC1C(C2)N(C)CC3 (stereo not given in full) ?
**A:** inactive

**Q:** What do you have for COc1ccc(C(=O)c2c(C)n(CCN3CCOCC3)c3cc(I)ccc23)cc1 ?
**A:** active

**Q:** What do you have for CSCC[C@@H](NC(=O)[C@@H](Cc1ccccc1)NC(=O)CNC(=O)CNC(=O)[C@@H](N)Cc1ccc(O)cc1)C(=O)O ?
**A:** inactive

**Q:** What do you have for Cc1c(C(=O)Nc2cccc(C(F)(F)F)c2)cc(-c2ccccc2)n1CCCN1CCOCC1 ?
**A:** active

**Q:** What do you have for CCCCCC[C@H]1C(=O)O[C@H](C)[C@H](NC(=O)c2cccc(NC=O)c2O)C(=O)O[C@@H](C)[C@@H]1OC(=O)CC(C)C ?
**A:** active

**Q:** What do you have for C[C@@H]1CC[C@@]2(OC1)O[C@H]1C[C@H]3[C@@H]4CC=C5C[C@@H](O[C@@H]6O[C@H](CO)[C@@H](O[C@@H]7O[C@@H](C)[C@H](O)[C@@H](O)[C@@H]7O)[C@H](O)[C@@H]6O[C@@H]6O[C@@H](C)[C@H](O)[C@@H](O)[C@@H]6O)CC[C@]5(C)[C@@H]4CC[C@]3(C)[C@@H]1[C@H]2C ?
**A:** active

**Q:** What do you have for C[C@]12CC[C@H]3[C@@H](CCC4=CC(=O)CC[C@@]43C)[C@H]1CC[C@H]2O ?
**A:** inactive

**Q:** What do you have for COC(=O)[C@@H](N)CCCN=C(N)N[N+](=O)[O-] ?
**A:** inactive

**Q:** What do you have for CCCN1CCO[C@@H]2c3cc(O)ccc3OC[C@@H]21 ?
**A:** inactive

**Q:** What do you have for CC(C)N(CCNC(=O)CN1CCCC1=O)C(C)C ?
**A:** inactive
